# MEASURED ON: Recombinant human MAO-B (Homo sapiens, UniProt P27338)
# ASSAY EXPLANATION: MAO-B inhibition enzyme assay
Here, each record is paired with measured pIC50 data.
pIC50 is a log-scale quantity: -log10 of the concentration expressed in molar.

O=C(NN=Cc1ccc(F)cc1)c1ccc(F)cc1 ... 6.82

Need pIC50, item O=C(NN=Cc1ccc(F)cc1)c1ccc(Br)cc1
6.85

Try the molecule O=C(NN=Cc1ccc(Cl)cc1)c1ccc(F)cc1
5.25

Try the molecule O=C(NN=Cc1ccccc1)c1ccc(Cl)cc1
4.89

Try the molecule O=C(NN=Cc1ccc(Cl)cc1)c1ccccc1
6.44

----------
Here, each record is paired with measured SI (selectivity index) data.
# MEASURED ON: Recombinant human MAO-B (Homo sapiens, UniProt P27338)
# Sequence (P27338 1-520): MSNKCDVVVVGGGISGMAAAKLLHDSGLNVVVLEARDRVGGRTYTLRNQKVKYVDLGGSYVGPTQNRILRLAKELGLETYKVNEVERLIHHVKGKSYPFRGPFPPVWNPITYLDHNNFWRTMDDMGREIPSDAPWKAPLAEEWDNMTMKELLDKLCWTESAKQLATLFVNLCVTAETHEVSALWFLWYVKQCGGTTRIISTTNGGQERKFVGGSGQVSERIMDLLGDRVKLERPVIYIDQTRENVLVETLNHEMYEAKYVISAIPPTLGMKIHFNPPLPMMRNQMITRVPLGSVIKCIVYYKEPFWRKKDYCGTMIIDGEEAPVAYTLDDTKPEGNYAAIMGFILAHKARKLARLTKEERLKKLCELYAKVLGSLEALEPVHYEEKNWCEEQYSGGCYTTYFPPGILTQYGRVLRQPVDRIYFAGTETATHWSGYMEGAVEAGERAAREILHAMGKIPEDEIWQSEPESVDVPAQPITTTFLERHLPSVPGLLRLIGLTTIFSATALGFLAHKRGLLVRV
# ASSAY EXPLANATION: MAO-B inhibition enzyme assay
# Format: biochemical
# CONDITIONS: IC50 for MAO-A / IC50 for MAO-B
No unit in the answer, only the number.

For orientation, consider the following solved cases.
O=C(NN=Cc1ccc(Br)cc1)c1ccc(F)cc1 ... 64.44
O=C(NN=Cc1ccc(Cl)cc1)c1ccc(F)cc1 ... 0.87
O=C(NN=Cc1ccc(Cl)cc1)c1ccc(Br)cc1 ... 101.10

Missing value: SI (selectivity index), Recombinant human MAO-B (Homo sapiens, UniProt P27338), entry O=C(NN=Cc1ccc(F)cc1)c1ccc(F)cc1 . Fill in?
130.47

Try the compound O=C(NN=Cc1ccc(F)cc1)c1ccc(Br)cc1
167.29

----------
# MEASURED ON: Recombinant human MAO-B (Homo sapiens)
# ASSAY EXPLANATION: MAO-B enzyme kinetics
Here, each record is paired with measured Ki data.
Field: numeric (nM). Do not append units.

O=C(NN=Cc1ccc(F)cc1)c1ccc(F)cc1 [ACH14] ... 100

Need Ki, item O=C(NN=Cc1ccc(F)cc1)c1ccc(Br)cc1 [ACH10]
97

----------
# MEASURED ON: Recombinant human MAO-A (Homo sapiens)
# Sequence (P21397 1-527): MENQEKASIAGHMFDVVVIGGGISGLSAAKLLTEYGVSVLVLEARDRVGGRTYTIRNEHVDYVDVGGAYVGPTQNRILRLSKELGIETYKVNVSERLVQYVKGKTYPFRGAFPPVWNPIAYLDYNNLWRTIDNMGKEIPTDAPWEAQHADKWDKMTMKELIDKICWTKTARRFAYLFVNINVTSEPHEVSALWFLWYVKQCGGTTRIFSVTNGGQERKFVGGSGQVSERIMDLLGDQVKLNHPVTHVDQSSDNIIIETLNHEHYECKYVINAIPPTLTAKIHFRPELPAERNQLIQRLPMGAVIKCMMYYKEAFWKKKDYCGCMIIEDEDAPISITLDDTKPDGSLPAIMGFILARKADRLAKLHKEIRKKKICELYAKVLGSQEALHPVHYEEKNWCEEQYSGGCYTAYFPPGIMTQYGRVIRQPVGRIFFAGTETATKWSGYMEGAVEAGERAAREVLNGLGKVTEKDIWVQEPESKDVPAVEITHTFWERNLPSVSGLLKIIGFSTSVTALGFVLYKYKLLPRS
# ASSAY EXPLANATION: MAO-A inhibition enzyme assay
pIC50: −log10 of the molar value.
Here, each record is paired with measured pIC50 data.

O=C(NN=Cc1ccc(Cl)cc1)c1ccc(F)cc1 ... 5.31
O=C(NN=Cc1ccccc1)c1ccc(Cl)cc1 ... < 4.40
O=C(NN=Cc1ccc(Cl)cc1)c1ccccc1 ... < 4.40
O=C(NN=Cc1ccc(F)cc1)c1ccccc1 ... < 4.40
O=C(NN=Cc1ccc(Cl)cc1)c1ccc(Cl)cc1 ... < 4.40

Need pIC50, item O=C(NN=Cc1ccc(F)cc1)c1ccc(Cl)cc1
< 4.40

----------
# MEASURED ON: Recombinant human MAO-A (Homo sapiens)
# ASSAY EXPLANATION: MAO-A inhibition enzyme assay
# Format: biochemical
# CONDITIONS: read-out: residual activities at 10 μM (%) MAO-A
READOUT TYPE: remaining activity at 10 µM (%)
Field: numeric (%). Do not append units.

For orientation, consider the following solved cases.
O=C(NN=Cc1ccc(Cl)cc1)c1ccc(F)cc1 ... 37.6
O=C(NN=Cc1ccc(F)cc1)c1ccc(Cl)cc1 ... 117
O=C(NN=Cc1ccc(Br)cc1)c1ccccc1 ... 131

Need remaining activity at 10 µM, item O=C(NN=Cc1ccc(Br)cc1)c1ccc(Br)cc1
101

Try the compound O=C(NN=Cc1ccc(F)cc1)c1ccccc1
109

Try the compound O=C(NN=Cc1ccccc1)c1ccc(Cl)cc1
127

Try the compound O=C(NN=Cc1ccc(F)cc1)c1ccc(F)cc1
63.8

Try the compound O=C(NN=Cc1ccc(Cl)cc1)c1ccc(Cl)cc1
92.1

----------
Here, each record is paired with measured IC50 data.
# MEASURED ON: Recombinant human MAO-A (Homo sapiens, UniProt P21397)
# ASSAY EXPLANATION: MAO-A inhibition enzyme assay
Field: numeric (µM). Do not append units.

O=C(NN=Cc1ccc(Br)cc1)c1ccc(F)cc1 [ACH13] ... 11.6

Need IC50, item O=C(NN=Cc1ccc(Cl)cc1)c1ccc(Br)cc1 [ACH8]
20.2

Try the compound O=C(NN=Cc1ccc(F)cc1)c1ccc(Br)cc1 [ACH10]
23.4

Try the compound O=C(NN=Cc1ccc(F)cc1)c1ccc(F)cc1 [ACH14]
19.6

----------
Here, each record is paired with measured remaining activity at 10 µM data.
# MEASURED ON: Recombinant human MAO-A (Homo sapiens, UniProt P21397)
# Sequence (P21397 1-527): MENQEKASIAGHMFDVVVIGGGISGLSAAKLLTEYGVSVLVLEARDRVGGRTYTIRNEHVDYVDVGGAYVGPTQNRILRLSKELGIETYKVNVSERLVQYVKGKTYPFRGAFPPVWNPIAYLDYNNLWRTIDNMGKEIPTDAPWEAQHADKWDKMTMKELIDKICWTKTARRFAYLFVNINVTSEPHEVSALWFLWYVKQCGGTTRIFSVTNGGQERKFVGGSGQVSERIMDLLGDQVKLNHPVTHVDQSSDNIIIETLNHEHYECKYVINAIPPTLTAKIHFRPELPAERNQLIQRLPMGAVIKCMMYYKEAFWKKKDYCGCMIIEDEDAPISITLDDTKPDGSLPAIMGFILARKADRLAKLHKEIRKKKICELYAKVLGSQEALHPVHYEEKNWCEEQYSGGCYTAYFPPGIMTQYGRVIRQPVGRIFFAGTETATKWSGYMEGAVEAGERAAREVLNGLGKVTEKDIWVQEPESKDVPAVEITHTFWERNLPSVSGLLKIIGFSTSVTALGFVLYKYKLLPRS
# ASSAY EXPLANATION: MAO-A inhibition enzyme assay
# Type: biochemical
# CONDITIONS: read-out: residual activities at 10 μM (%) MAO-A
Field: numeric (%). Do not append units.

For orientation, consider the following solved cases.
O=C(NN=Cc1ccccc1)c1ccc(Br)cc1 [ACH11] ... 102
O=C(NN=Cc1ccc(Br)cc1)c1ccc(F)cc1 [ACH13] ... 38.5
O=C(NN=Cc1ccc(Br)cc1)c1ccc(Cl)cc1 [ACH5] ... 70.6
O=C(NN=Cc1ccc(Cl)cc1)c1ccccc1 [ACH1] ... 96
O=C(NN=Cc1ccc(Cl)cc1)c1ccc(Br)cc1 [ACH8] ... 59.6

Need remaining activity at 10 µM, item O=C(NN=Cc1ccc(F)cc1)c1ccc(Br)cc1 [ACH10]
61.8

----------
# MEASURED ON: Recombinant human MAO-B (Homo sapiens, UniProt P27338)
# Sequence (P27338 1-520): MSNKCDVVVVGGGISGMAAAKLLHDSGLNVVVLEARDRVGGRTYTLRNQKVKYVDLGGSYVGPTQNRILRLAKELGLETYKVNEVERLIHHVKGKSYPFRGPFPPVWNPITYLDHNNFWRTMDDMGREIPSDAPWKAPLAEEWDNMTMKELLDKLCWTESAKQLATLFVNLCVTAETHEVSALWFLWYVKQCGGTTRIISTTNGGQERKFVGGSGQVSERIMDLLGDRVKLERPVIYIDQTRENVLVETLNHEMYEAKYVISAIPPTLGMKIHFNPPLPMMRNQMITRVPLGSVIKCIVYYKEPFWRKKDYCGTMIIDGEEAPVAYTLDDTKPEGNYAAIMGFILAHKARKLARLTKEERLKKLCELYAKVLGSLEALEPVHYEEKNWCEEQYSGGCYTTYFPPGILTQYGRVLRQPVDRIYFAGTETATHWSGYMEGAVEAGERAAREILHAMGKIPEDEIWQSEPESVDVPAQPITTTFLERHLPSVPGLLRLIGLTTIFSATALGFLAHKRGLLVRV
# ASSAY EXPLANATION: MAO-B inhibition enzyme assay
# Format: biochemical
# CONDITIONS: read-out: residual activities at 10 μM (%) MAO-B
Please note: remaining activity at 10 µM exactly at 40% is Condition not met. Only values below 40% get Condition met.

Solved cases below.
O=C(NN=Cc1ccc(F)cc1)c1ccc(F)cc1 ... Condition met
O=C(NN=Cc1ccc(Br)cc1)c1ccc(Cl)cc1 ... Condition met
O=C(NN=Cc1ccc(F)cc1)c1ccc(Cl)cc1 ... Condition not met
O=C(NN=Cc1ccc(Cl)cc1)c1ccccc1 ... Condition met
O=C(NN=Cc1ccc(Cl)cc1)c1ccc(Br)cc1 ... Condition met

Is remaining activity at 10 µM of O=C(NN=Cc1ccc(Br)cc1)c1ccccc1 strictly below 40%?
Condition met

Try the compound O=C(NN=Cc1ccc(F)cc1)c1ccc(Br)cc1
Condition met

Try the compound O=C(NN=Cc1ccc(Cl)cc1)c1ccc(Cl)cc1
Condition met

Try the compound O=C(NN=Cc1ccc(Cl)cc1)c1ccc(F)cc1
Condition met

Try the compound O=C(NN=Cc1ccc(F)cc1)c1ccccc1
Condition met

Try the compound O=C(NN=Cc1ccccc1)c1ccc(Cl)cc1
Condition not met

Try the compound O=C(NN=Cc1ccc(Br)cc1)c1ccc(Br)cc1
Condition not met

Try the compound O=C(NN=Cc1ccc(Br)cc1)c1ccc(F)cc1
Condition met
